- Test system: MCF7
- MEASUREMENT PROTOCOL: Cytotoxicity against human MCF7 cells by calcein AM/[…] fluorometric detection
- Type: functional, cell-based
ENDPOINT: EC50 (µM)
Numeric answer only, unit µM assumed.

>>> observed_value("C/C=C/C=C/c1cc2cc3c(c(O)c2c(=O)[nH]1)[C@@]1(CC3)C(=O)C(=O)c2c(c(O)c3c(O)c(OC)cc(O)c3c2O)C1=O")
7.3

Form field: EC50 recorded for C/C=C/C=C/c1cc2cc3c(c(O)c2c(=O)[nH]1)[C@@]1(CC3)C(=O)c2c(O)c3c(c(O)c2C1=O)C(=O)C(OC)=CC3=O with MCF7 (enter value) 0.36
